- System: KB
- Test details: Cytotoxicity against human KB cells after 48 hrs by MTT assay
- Format: cell-based
pIC50: −log10 of the molar value.
Listed compounds paired with reported pIC50

Compound	Relation operator	pIC50
CC[C@@H]1CN2CC[C@@]34C(=Nc5ccccc53)[C@@H](CO)[C@H]1C[C@H]24	<	4.40
CC[C@@H]1C[N+]2([O-])CC[C@]34c5ccccc5N[C@H]3[C@@H](CO)[C@H]1C[C@@H]42 (stereo not given in full)	<	4.40
CCN(CC)CCCC(C)Nc1ccnc2cc(Cl)ccc12 (stereo not given)	=	4.69
CC[C@@H]1CN2CC[C@]34c5ccccc5N[C@H]3[C@@H](CO)[C@H]1C[C@H]24	<	4.40
CCc1ccc2c3[nH]c4ccccc4c3cc[n+]2c1.[Cl-]	=	4.97

---

Consider the following molecules and their measured pIC50 readings.
- Tested on: Plasmodium falciparum
- Test details: Antiplasmodial activity against chloroquine-resistant Plasmodium falciparum K1
- Type: functional, organism-based
pIC50: −log10 of the molar value.

Molecule	System name	Relation operator	pIC50
CC[C@@H]1CN2CC[C@@]34C(=Nc5ccccc53)[C@@H](CO)[C@H]1C[C@H]24	Plasmodium falciparum	=	4.56
CC[C@@H]1C[N+]2([O-])CC[C@]34c5ccccc5N[C@H]3[C@@H](CO)[C@H]1C[C@@H]42 (some centres undefined)	Plasmodium falciparum	<	4.40
CC[C@@H]1CN2CC[C@]34c5ccccc5N[C@H]3[C@@H](CO)[C@H]1C[C@H]24	Plasmodium falciparum	<	4.40
CCc1ccc2c3[nH]c4ccccc4c3cc[n+]2c1.[Cl-]	Plasmodium falciparum	=	4.94
